# System: OVCAR-4 ovarian
# Procedure details: NCI tumour cell line growth inhibition, 48 h
Measure name: GI50

Observe how each entry below is paired with its result.
Cc1cc(N2CCCCC2)nc(N(CCCNc2ccnc3cc(Cl)ccc23)Cc2ccco2)n1 = 2690 nM
COc1ccccc1OCC(=O)Nc1sc2c(c1C(N)=O)CCC2 = > 100000 nM
CCOc1cccc(/C=N/NC(=O)c2ccc(Nc3ccnc(C(F)(F)F)c3)cc2)c1O = 755 nM
O=C(CN1CCN(c2ncnc3ccccc23)CC1)Nc1ccc(Cl)cc1C(=O)c1ccccc1Cl = 1320 nM
C/C=C(\C)C(=O)N[C@H]1CC[C@]2(C)C3CC[C@@]4(C)C(CC[C@@H]4C(C)N(C)C)C3CCC2[C@H]1OC(C)=O (some centres undefined) = 2430 nM

Write down the reported GI50 of COc1cc(C(=O)c2ccc3c(c2)OCO3)cc(OC)c1OC , test system: OVCAR-4 ovarian. 5140 nM

---

# Tested on: UACC-257 melanoma
# Procedure details: NCI tumour cell line growth inhibition, 48 h
Measure name: TGI

Observe how each entry below is paired with its result.
CC(=O)Oc1ccc2c(c1)Oc1cc(C(C)=O)ccc1C21OC(=O)c2ccccc21 (stereo unspecified) = > 100 µM
Cn1c2ccccc2c(=S)c2ccccc21 = > 100 µM
COC(=O)[C@@H]1CN(C(=O)c2ccccc2)C(=O)N1 = > 100 µM
Cc1ccc([N+](=O)[O-])c2c(NCCNC(=O)Cn3ccnc3[N+](=O)[O-])ccnc12 = 87.7 µM
CCOC(=O)/C(=C\c1ccc(O)c(OC)c1)C(=O)c1ccccc1 = > 49.7 µM
O=c1cc(-c2ccccc2)[nH]c2cc(F)c(F)cc12 = > 100 µM
Cc1ccc(NC(=O)CCC(CC(=O)C(C)(C)C)=NNC(=O)C(=O)NN)cc1C = > 100 µM
N#C/C(=C\c1ccc(-c2ccc(Cl)cc2)o1)C(=O)Nc1ncc(Cc2ccc(Cl)cc2)s1 = > 100 µM

Any idea what TGI was measured for COc1cc2nc(-c3cnc(N(C)C)nc3)nc(NC3CCN(Cc4ccccc4)CC3)c2cc1OC ? 3.66 µM

Any idea what TGI was measured for COCO[C@@H]1C[C@H]2C(O)Nc3ccccc3C(=O)N2C1 (stereo partly specified) ? > 100 µM

Any idea what TGI was measured for N#Cc1c2ccc([N+](=O)[O-])cc2c(=O)n2c1sc1ccc(C(F)(F)F)cc12 ? > 100 µM

Any idea what TGI was measured for CC1=C[C@H]2c3c(c(O)c(O)c4oc5c(C)cccc5c(=O)c34)[C@H](c3cc(O)c(O)c4oc5c(C)cccc5c(=O)c34)[C@H]2C(C)(C)C1 ? 8.34 µM

Any idea what TGI was measured for COc1cc(C(=O)c2ccc3c(c2)OCO3)cc(OC)c1OC ? > 100 µM

Any idea what TGI was measured for COc1ccc(N2C(=O)C3c4[nH]c5ccccc5c4C4CCCCCCCCCCC4C3C2=O)cc1 (stereo unspecified) ? > 100 µM

Any idea what TGI was measured for COC(=O)Nc1nc2ccc(Oc3ccc(NC(=O)Nc4cccc(C(=O)O)c4)cc3)cc2[nH]1 ? > 25 µM

Any idea what TGI was measured for CC(=O)OC1CCN(C(=O)c2ccccc2)CC1CC1(c2cc3ccccc3[nH]2)OCCO1 (stereo unspecified) ? > 100 µM

Any idea what TGI was measured for COc1ccc(N2C(=O)C3c4[nH]c5ccc(OC)cc5c4C4CCC(C(C)(C)C)CC4C3C2=O)cc1 (stereo unspecified) ? > 100 µM

Any idea what TGI was measured for CCOC(C)C(/C=N/NC(N)=S)=NNC(N)=S (stereo unspecified) ? > 100 µM

Any idea what TGI was measured for CCN(CC)CCCC(C)Nc1cnc(C(=O)Nc2ccc(Cl)c3cccnc23)cn1 (stereo unspecified) ? 7.96 µM

Any idea what TGI was measured for CN(C)c1ccc(-c2cc(=O)c3cc4c(cc3[nH]2)OCO4)cc1 ? > 100 µM

Any idea what TGI was measured for COC(=O)CCCN(C)c1n[nH]c(N)n1 ? > 100 µM

All figures here come from PubChem BioAssay (NCI).
